The reported measurements were obtained from patent US20150315218A1.

# METHOD NOTES: Single-dose toxicokinetic and tolerability study of prodrugs in dogs
# Type: in vivo, dog
# MEASUREMENT PARAMETERS: female, dog, plasma, oral, 25 mg/kg, dog 2201F, day 8, Ibb 25 mg/kg QD aqueous solution; read-out: C24h
OBSERVED PROPERTY: concentration at 24 h (nM)
Give bare numbers, in nM.

Task: Any idea what its concentration at 24 h is? The molecule is "O=C(C(=O)N1CCN(C(=O)c2ccccc2)CC1)c1c[nH]c2c(-n3ccnn3)ncc(F)c12"
Output: 107

====

# METHOD NOTES: IV and PO pharmacokinetic studies of prodrug salts (Iab, Ibb, Icb) in the dog, with historical parent data
# Format: in vivo, beagle dogs
# MEASUREMENT PARAMETERS: male, beagle, in vivo, iv, 1.28 mg/kg
OBSERVED PROPERTY: MRT (min)
One number for each entry, in min.

Task: Any idea what its MRT is? The compound is "COc1cnc(-n2cnc(C)n2)c2c1c(C(=O)C(=O)N1CCN(C(=O)c3ccccc3)CC1)cn2COP(=O)(O)O"
Output: 8.4

====

# METHOD NOTES: IV and PO pharmacokinetic studies of prodrug salts (Iab, Ibb, Icb) in the monkey, with historical parent data
# Format: in vivo, cynomolgus monkeys
# MEASUREMENT PARAMETERS: male, cynomolgus monkey, plasma; monkey, parent after oral prodrug; read-out: t1/2 (hr), PO (converted)
OBSERVED PROPERTY: half-life (h)
One number for each entry, in h.

Task: Any idea what its half-life is? The compound is COc1ncc(OC)c2c(C(=O)C(=O)N3CCN(C(=O)c4ccccc4)CC3)c[nH]c12 [IVa]
Output: 4.8

====

# METHOD NOTES: Oral dose escalation study in rats (Study D of Ica; historical Study E of IVc)
# Assay type: in vivo
# MEASUREMENT PARAMETERS: Sprague-Dawley, rat, plasma, po, 25 mg/kg
OBSERVED PROPERTY: Cmax

Task: Any idea what its Cmax is? The compound is "COc1cnc(-n2cnc(C)n2)c2[nH]cc(C(=O)C(=O)N3CCN(C(=O)c4ccccc4)CC3)c12"
Output: 46 µM

====

# METHOD NOTES: Single-dose toxicokinetic and tolerability study of prodrugs in dogs
# Format: in vivo, dog
# MEASUREMENT PARAMETERS: male, dog, plasma, oral, 92 mg/kg, dog 3101M, day 1, Icb 92 mg/kg (IVc equiv. 75) QD dry-filled capsules; read-out: C24h
OBSERVED PROPERTY: concentration at 24 h (nM)
Numbers only, in nM.

Task: Any idea what its concentration at 24 h is? The molecule is COc1cnc(-n2cnc(C)n2)c2[nH]cc(C(=O)C(=O)N3CCN(C(=O)c4ccccc4)CC3)c12 [IVc]
Output: 1900

====

# METHOD NOTES: Single-dose toxicokinetic and tolerability study of prodrugs in dogs
# Format: in vivo, dog
# MEASUREMENT PARAMETERS: male, dog, plasma, po, 25 mg/kg, dog 2101M, day 1, Ibb 25 mg/kg QD dry-filled capsules; read-out: T1/2 (converted)
OBSERVED PROPERTY: half-life (h)
Give bare numbers, in h.

Task: Any idea what its half-life is? The molecule is "O=C(C(=O)N1CCN(C(=O)c2ccccc2)CC1)c1c[nH]c2c(-n3ccnn3)ncc(F)c12"
Output: 1.5

====

# METHOD NOTES: MAP studies G and H: PO dosing of diester IIa and monoester II′a in rats
# Format: in vivo, rat
# MEASUREMENT PARAMETERS: male, Sprague-Dawley, rat, plasma, po, 5 mg/kg, IVa following PO dosing of monoester II′a
OBSERVED PROPERTY: bioavailability (%)
Give bare numbers, in %.

Task: Any idea what its bioavailability is? The compound is "COc1ncc(OC)c2c(C(=O)C(=O)N3CCN(C(=O)c4ccccc4)CC3)c[nH]c12"
Output: 44

====

# METHOD NOTES: IV and oral rat PK (MAP) studies A, B, C of phosphate prodrugs and parent studies A1, B1, C1
# Type: in vivo, Sprague-Dawley rats
# MEASUREMENT PARAMETERS: male, Sprague-Dawley, rat, in vivo, 1 mg/kg; rats, prodrug IV equivalent to 1 mpk of parent; read-out: Vss i.v.
OBSERVED PROPERTY: Vd (L/kg)
One number for each entry, in L/kg.

Task: Any idea what its Vd is? The molecule is "O=C(C(=O)N1CCN(C(=O)c2ccccc2)CC1)c1cn(COP(=O)([O-])[O-])c2c(-n3ccnn3)ncc(F)c12.[Na+].[Na+]"
Output: 0.97

====

# METHOD NOTES: Oral dose escalation study in rats (Study D of Ica; historical Study E of IVc)
# Assay type: in vivo
# MEASUREMENT PARAMETERS: Sprague-Dawley, rat, plasma, po, 75 mg/kg
OBSERVED PROPERTY: Cmax (µM)
Answers are plain numbers, in µM.

Task: Any idea what its Cmax is? The molecule is COc1cnc(-n2cnc(C)n2)c2[nH]cc(C(=O)C(=O)N3CCN(C(=O)c4ccccc4)CC3)c12 [IVc]
Output: 86

====

# METHOD NOTES: IV and PO pharmacokinetic studies of prodrug salts (Iab, Ibb, Icb) in the dog, with historical parent data
# Format: in vivo, beagle dogs
# MEASUREMENT PARAMETERS: male, beagle, plasma, oral, 7 mg/kg, read-out: C-24 hr
# Description: The IV and PO studies of Iab were conducted in a crossover fashion in three male beagle dogs (11±1.1 kg, Marshall Farms USA Inc., North Rose, N.Y.). There was a two-week washout period between the IV and PO studies. In the IV study, Iab was infused via the cephalic vein at 1.2 mg/kg (free acid, or 0.95 mg/kg of IVa equivalent) over 5 min at a constant rate of 0.1 mL/kg/min. The concentration of the dosing solution was 2.4 mg/mL, and the dosing volume was 0.5 mL/kg. […]
OBSERVED PROPERTY: concentration at 24 h
Write down the value, and be sure its unit follows.

Task: Any idea what its concentration at 24 h is? The compound is "O=C(C(=O)N1CCN(C(=O)c2ccccc2)CC1)c1c[nH]c2c(-n3ccnn3)ncc(F)c12"
Output: 37 nM

====

# METHOD NOTES: IV and PO pharmacokinetic studies of prodrug salts (Iab, Ibb, Icb) in the rat, with historical parent data
# Type: in vivo, Sprague-Dawley rats
# MEASUREMENT PARAMETERS: plasma, iv, 1 mg/kg, read-out: AUCtot
Record form. Attribute: AUC. Fill in for each entry.
One number for each entry, in µM·h.

* O=C(C(=O)N1CCN(C(=O)c2ccccc2)CC1)c1c[nH]c2c(-n3ccnn3)ncc(F)c12 [IVb] | 24

Let us examine a further case.
Task: Any idea what its AUC is? The compound is COc1cnc(-n2cnc(C)n2)c2[nH]cc(C(=O)C(=O)N3CCN(C(=O)c4ccccc4)CC3)c12 [IVc]
Output: 27

====

# METHOD NOTES: IV and PO pharmacokinetic studies of prodrug salts (Iab, Ibb, Icb) in the dog, with historical parent data
# Type: in vivo, beagle dogs
# MEASUREMENT PARAMETERS: male, beagle, plasma, prodrug after IV administration, read-out: Vdss (L/kg), IV
Record form. Attribute: Vd. Fill in for each entry.
Numbers only, in L/kg.

- O=C(C(=O)N1CCN(C(=O)c2ccccc2)CC1)c1cn(COP(=O)(O)O)c2c(-n3ccnn3)ncc(F)c12: 0.35

Let us examine a further case.
Task: Any idea what its Vd is? The compound is "COc1cnc(OC)c2c1c(C(=O)C(=O)N1CCN(C(=O)c3ccccc3)CC1)cn2COP(=O)(O)O"
Output: 0.3

====

# METHOD NOTES: Single-dose toxicokinetic and tolerability study of prodrugs in dogs
# Assay type: in vivo, dog
# MEASUREMENT PARAMETERS: male, dog, plasma, oral, 125 mg/kg, dog 4101M, day 8, Ibb 125 mg/kg BID dry-filled capsules; read-out: C24h
OBSERVED PROPERTY: concentration at 24 h (µM)
Numbers only, in µM.

Task: Any idea what its concentration at 24 h is? The compound is O=C(C(=O)N1CCN(C(=O)c2ccccc2)CC1)c1c[nH]c2c(-n3ccnn3)ncc(F)c12 [IVb]
Output: 54.2

====

# METHOD NOTES: IV and PO pharmacokinetic studies of prodrug salts (Iab, Ibb, Icb) in the dog, with historical parent data
# Type: in vivo, beagle dogs
# MEASUREMENT PARAMETERS: male, beagle, plasma, po, 6.05 mg/kg, read-out: AUCtot
OBSERVED PROPERTY: AUC (µM·h)
Numbers only, in µM·h.

Task: Any idea what its AUC is? The compound is "COc1cnc(-n2cnc(C)n2)c2[nH]cc(C(=O)C(=O)N3CCN(C(=O)c4ccccc4)CC3)c12"
Output: 72
